Test: inhibitors of TNFa-induced NFkB p65 translocation, primary screen, imaging, HUVEC, MLSMR starter and 10KST1 sets (AID 438);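 note: compound added about 3h40 before a 20 min TNFalpha stimulation; signal is the nuclear over cytoplasmic p65 intensity ratio per well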
Conditions: HUVEC TNFa-induced p65 nuclear translocation; at 2 µM, 0% TNFa-plus-vehicle, 100% no-TNFa wells
Active and inactive are the calls of the source.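 Rule for the calls: active = inhibition above 20% together with a positive visual image hit; inconclusive = visual image hit but inhibition not above 20%; inactive = no visual image hit.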
Outcome codes: active, inactive

> print(dat)
                                    molecule  class.label
 1  CN(C)C(=O)Cn1c(SCC(=O)NC2CCCCC2)nc2ccccc21     inactive
 2       CCn1nc(C)c(NC(=O)c2cc(Br)ccc2Cl)c1C     inactive
 3  COc1ccccc1CNC(=O)CCNC(=O)Cn1ccc2ccccc2c1=O     inactive
 4     CCCCOC(=O)CNc1nnc(SCC(=O)OCC)[nH]c1=O     inactive
 5        COc1cccc(CN2CCN(C(=O)CC(C)C)CC2)c1     inactive
 6         COc1cccc(NC(=O)COC(=O)c2cccnc2)c1     inactive
 7  CCOC(=O)c1ccc(NC(=O)CSC2=NC(=O)C(CC)C(=O)N2)cc1 (stereo unspecified)     inactive
 8  COCCOC(=O)C1=C(C)NC(=O)CC1c1cc2c(cc1Br)OCO2 (stereo unspecified)     inactive
 9               COCCNS(=O)(=O)c1cc(F)ccc1OC     inactive
10  Cc1noc(C)c1CSc1nc2cc(S(=O)(=O)N3CCOCC3)ccc2o1     inactive
11               CCOC(=O)c1cc(C(C)(C)C)oc1CN     inactive
12            CCOC(=O)CSc1nnc(-c2ccccc2OC)o1     inactive
13  CCN(C(=O)CCc1nc(-c2ccccc2F)no1)c1cc(OC)ccc1OC     inactive
14  CCCc1ccc(Oc2cn[nH]c2-c2ccc(O)c(C)c2O)cc1     inactive
15           O=S(=O)(c1ccc(F)c(Cl)c1)N1CCCC1     inactive
16     CCC(CC)C(=O)NCCc1cc2ccc(C)cc2[nH]c1=O     inactive
17  CCOC(=O)c1cnc2c(OC)cccc2c1N1CCN(c2ccc(OC)cc2)CC1     inactive
18  N#CC1=C(N)S[C@H](C(=O)C23CC4CC(CC(C4)C2)C3)[C@H]1c1ccncc1     inactive
19      [O-][n+]1c2ccc3nonc3c2nn1-c1ccccc1Cl     inactive
20          CCC(=O)Nc1c2c(nn1-c1ccccc1C)CSC2     inactive
21  CCCNC(=O)CS(=O)(=O)Cc1nc(-c2cccc(OC)c2)oc1C     inactive
22  CCCCN(Cc1cc2cc(OC)ccc2[nH]c1=O)C(=O)c1ccccn1     inactive
23  O=C(NCc1ccc2c(c1)OCO2)C1CCC(CNS(=O)(=O)c2ccccc2)CC1 (stereo unspecified)     inactive
24            CCCCOc1ccc(CSc2n[nH]c(C)n2)cc1     inactive
25    O=C(O)[C@@H]1CCCN1c1ncnc2sc3c(c12)CCC3     inactive
26  CCOC(=O)c1ccc2ncc(C(=O)OCC)c(NCCN(C)C)c2c1     inactive
27  Cc1csc(SCCn2c(N3CCCC3)nc3c2c(=O)[nH]c(=O)n3C)n1       active
28  CS(=O)(=O)c1ccc2nc(NC(=O)C3C4C=CC(C4)C3C(=O)O)sc2c1 (stereo unspecified)     inactive
29     CCOC(=O)CNC(=O)CSc1nnnn1-c1cc(C)ccc1C     inactive
30  CCOC(=O)c1ccccc1NC1c2ccccc2C(=O)N1C1CCN(C(=O)OCC)CC1 (stereo unspecified)     inactive
31  CC1Cc2ccccc2N1C(=O)C12CCC(C)(C(=O)C1)C2(C)C (stereo unspecified)     inactive
32  COc1ccc(N(CC(=O)NCCSC(C)(C)C)S(C)(=O)=O)c(OC)c1     inactive
33  COc1ccc2nc(NC(=O)C3CCCN(S(=O)(=O)c4cccc5nsnc45)C3)sc2c1 (stereo unspecified)     inactive
34  CCn1cc(C2Nc3ccccc3C(=O)N2O)c(C)n1 (stereo unspecified)     inactive
35  O=C(NCc1cccnc1)C1c2ccccc2C(=O)N1Cc1ccco1 (stereo unspecified)     inactive
36    O=S(=O)(c1ccc(Br)s1)N1CCN(c2ccccc2)CC1     inactive
37  Cc1ccc(NC(=O)CSc2nnc(CNC(=O)c3c(F)cccc3Cl)o2)cc1     inactive
38         COc1ccc(C(=O)Nc2ccc(C)cn2)c(OC)c1     inactive
39  CS(=O)(=O)N(Cc1nc2sc3c(c2c(=O)[nH]1)CCCC3)C1CCCCC1     inactive
40  O=C(Nc1nc2c(s1)CCCC2)C1COc2ccccc2O1 (stereo unspecified)     inactive
41            CCN(CC)C(=O)COC(=O)c1ccc(O)cc1     inactive
42              CCOc1ccc(NC(=O)c2ccccc2O)cc1     inactive
43  CC1CC(C)CN(CCCNC(=O)c2ccc3c(c2)NC(=O)C(N2CCCCC2)S3)C1 (stereo unspecified)     inactive
44  O=C(Nc1nnc(N2CCCCCC2)s1)c1cc(-c2ccc(Br)cc2)on1     inactive
45   COC(=O)c1c(-c2cccs2)csc1NC(=O)CN1CCOCC1     inactive
46           CC(C)CNc1oc(-c2ccc(F)cc2)nc1C#N     inactive
